biological target: Androgen Receptor (Homo sapiens, UniProt P10275+P40337, T878A); construct: Compounds have been evaluated in this assay in LNCaP and/or VCaP cells utilizing similar protocols; endogenous in cells; host or cells: LNCaP cells; test: Androgen Receptor ELISA assay (PathScan AR ELISA) in LNCaP cells: AR degradation, Dmax and DC50; format: cell-based; settings: concentration that caused 50% Androgen Receptor degradation
Sequence (P10275 whole entry T878A): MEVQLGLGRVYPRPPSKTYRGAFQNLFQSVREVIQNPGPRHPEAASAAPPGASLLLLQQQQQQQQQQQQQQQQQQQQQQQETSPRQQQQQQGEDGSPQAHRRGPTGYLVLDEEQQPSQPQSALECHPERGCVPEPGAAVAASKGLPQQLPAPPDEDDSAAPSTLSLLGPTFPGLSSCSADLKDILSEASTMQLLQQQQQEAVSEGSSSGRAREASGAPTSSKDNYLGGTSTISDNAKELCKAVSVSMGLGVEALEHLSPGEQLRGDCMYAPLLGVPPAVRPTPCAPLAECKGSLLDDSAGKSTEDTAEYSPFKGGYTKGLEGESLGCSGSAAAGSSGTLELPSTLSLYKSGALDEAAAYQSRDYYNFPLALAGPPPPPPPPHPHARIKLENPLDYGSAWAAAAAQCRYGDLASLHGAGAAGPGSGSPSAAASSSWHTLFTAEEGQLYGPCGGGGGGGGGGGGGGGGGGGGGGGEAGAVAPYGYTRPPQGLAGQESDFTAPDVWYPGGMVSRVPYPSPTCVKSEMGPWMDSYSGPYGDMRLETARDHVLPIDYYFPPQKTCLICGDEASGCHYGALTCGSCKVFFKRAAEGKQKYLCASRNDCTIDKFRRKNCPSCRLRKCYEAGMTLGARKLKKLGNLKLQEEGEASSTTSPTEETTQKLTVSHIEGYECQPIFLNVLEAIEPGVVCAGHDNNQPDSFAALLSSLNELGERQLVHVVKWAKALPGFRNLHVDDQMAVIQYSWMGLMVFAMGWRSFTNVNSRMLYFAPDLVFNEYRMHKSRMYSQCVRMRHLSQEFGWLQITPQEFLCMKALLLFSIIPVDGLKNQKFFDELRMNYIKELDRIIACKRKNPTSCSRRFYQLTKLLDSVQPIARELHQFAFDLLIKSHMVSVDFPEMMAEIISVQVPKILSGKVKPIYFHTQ
Sequence (P40337 whole entry): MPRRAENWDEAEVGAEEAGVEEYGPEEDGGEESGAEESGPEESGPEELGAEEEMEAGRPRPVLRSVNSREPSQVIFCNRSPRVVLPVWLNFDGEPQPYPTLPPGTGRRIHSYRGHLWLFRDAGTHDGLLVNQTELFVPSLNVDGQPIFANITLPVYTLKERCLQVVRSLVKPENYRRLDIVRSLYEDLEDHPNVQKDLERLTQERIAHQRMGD
Sequence (Q15369 whole entry partner): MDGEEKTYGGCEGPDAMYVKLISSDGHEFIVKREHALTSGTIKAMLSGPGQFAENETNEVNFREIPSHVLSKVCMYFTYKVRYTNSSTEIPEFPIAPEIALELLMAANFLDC
Sequence (Q15370 whole entry partner): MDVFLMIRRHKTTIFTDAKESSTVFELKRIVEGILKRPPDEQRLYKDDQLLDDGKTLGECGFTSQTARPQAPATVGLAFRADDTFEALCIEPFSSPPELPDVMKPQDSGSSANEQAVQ

| GIVEN_SMILES | DC50 |
| --- | --- |
| Cc1ncsc1-c1ccc(CNC(=O)[C@@H]2C[C@@H](O)CN2C(=O)[C@@H](NC(=O)COCCCOCCCOc2ccc(CN3C(=S)N(c4ccc(C#N)c(C(F)(F)F)c4)C(=O)C3(C)C)cc2)C(C)(C)C)cc1 | 51 to 500 nM |
| Cc1ncsc1-c1ccc(CNC(=O)[C@@H]2C[C@@H](O)CN2C(=O)[C@@H](NC(=O)COCCOCCNC(=O)CCCc2ccc(N3C(=S)N(c4ccc(C#N)c(C(F)(F)F)c4)C(=O)C3(C)C)cc2)C(C)(C)C)cc1 | > 501 nM |
| Cc1ncsc1-c1ccc([C@H](C)NC(=O)[C@@H]2C[C@@H](O)CN2C(=O)[C@@H](NC(=O)COCCCCOCCCCOc2ccc(N3C(=S)N(c4ccc(C#N)c(C(F)(F)F)c4)C(=O)C3(C)C)cc2F)C(C)(C)C)cc1 | < 50 nM |
| Cc1ncsc1-c1ccc(CNC(=O)[C@@H]2C[C@@H](O)CN2C(=O)[C@@H](NC(=O)COCCOCCOCCOc2ccc(N3C(=O)N(c4ccc(C#N)c(C(F)(F)F)c4)C(=O)C3(C)C)cc2)C(C)(C)C)cc1 | 51 to 500 nM |

* * *

target: Androgen Receptor (Homo sapiens, UniProt P10275+P40337, T878A); construct: Compounds have been evaluated in this assay in LNCaP and/or VCaP cells utilizing similar protocols; endogenous in cells; host or cells: LNCaP cells; experiment: Androgen Receptor ELISA assay (PathScan AR ELISA) in LNCaP cells: AR degradation, Dmax and DC50; assay type: cell-based; conditions: highest percentage of Androgen Receptor degradation
PROPERTY: Dmax

| GIVEN_SMILES | PROPERTY | VAL |
| --- | --- | --- |
| Cc1ncsc1-c1ccc(CNC(=O)[C@@H]2C[C@@H](O)CN2C(=O)[C@@H](NC(=O)COCCOCCOCCCOCCOCCOc2ccc(N3C(=S)N(c4ccc(C#N)c(C(F)(F)F)c4)C(=O)C3(C)C)cc2)C(C)(C)C)cc1 | Dmax | 51 to 70% |
| Cc1ncsc1-c1ccc(CNC(=O)[C@@H]2C[C@@H](O)CN2C(=O)[C@@H](NC(=O)c2cccc(OCCCOc3ccc(N4C(=S)N(c5ccc(C#N)c(C(F)(F)F)c5)C(=O)C4(C)C)cc3)c2)C(C)(C)C)cc1 | Dmax | < 25% |
| Cc1ncsc1-c1ccc(CNC(=O)[C@@H]2C[C@@H](O)CN2C(=O)[C@H](C(C)C)N2Cc3ccccc3C2=O)c(OCCOCCOCCOCCOCCOc2ccc(N3C(=S)N(c4ccc(C#N)c(C(F)(F)F)c4)C(=O)C3(C)C)cc2)c1 | Dmax | 26 to 50% |
| Cc1ncsc1-c1ccc(CNC(=O)[C@@H]2C[C@@H](O)CN2C(=O)[C@H](C(C)C)N2Cc3cc(CCCCOCCOc4ccc(N5C(=S)N(c6ccc(C#N)c(C(F)(F)F)c6)C(=O)C5(C)C)cc4)ccc3C2=O)cc1 | Dmax | 51 to 70% |
| Cc1ncsc1-c1ccc(CNC(=O)[C@@H]2C[C@@H](O)CN2C(=O)[C@@H](NC(=O)c2ccc(OCCOCCCCOc3ccc(N4C(=S)N(c5ccc(C#N)c(C(F)(F)F)c5)C(=O)C4(C)C)cc3)cc2)C(C)(C)C)cc1 | Dmax | 26 to 50% |
| Cc1ncsc1-c1ccc(CNC(=O)[C@@H]2C[C@@H](O)CN2C(=O)[C@H](C(C)C)N2Cc3cc(CCCCOCCCOc4ccc(N5C(=S)N(c6ccc(C#N)c(C(F)(F)F)c6)C(=O)C5(C)C)cc4)ccc3C2=O)cc1 | Dmax | 26 to 50% |
| Cc1ncsc1-c1ccc(CNC(=O)[C@@H]2C[C@@H](O)CN2C(=O)[C@@H](NC(=O)CCCOCCOCCCOc2ccc(N3C(=S)N(c4ccc(C#N)c(C(F)(F)F)c4)C(=O)C3(C)C)cc2)C(C)(C)C)cc1 | Dmax | 51 to 70% |
| Cc1ncsc1-c1ccc(CNC(=O)[C@@H]2C[C@@H](O)CN2C(=O)[C@@H](NC(=O)c2ccccc2OCCCOc2ccc(N3C(=S)N(c4ccc(C#N)c(C(F)(F)F)c4)C(=O)C3(C)C)cc2)C(C)(C)C)cc1 | Dmax | < 25% |
| Cc1ncsc1-c1ccc(CNC(=O)[C@@H]2C[C@@H](O)CN2C(=O)[C@@H](NC(=O)CCNC(=O)CCCc2ccc(N3C(=S)N(c4ccc(C#N)c(C(F)(F)F)c4)C(=O)C3(C)C)cc2)C(C)(C)C)cc1 | Dmax | 51 to 70% |
| Cc1ncsc1-c1ccc(CNC(=O)[C@@H]2C[C@@H](O)CN2C(=O)[C@@H](NC(=O)COCCOCCOCCCCCOCCOCCOc2ccc(N3C(=S)N(c4ccc(C#N)c(C(F)(F)F)c4)C(=O)C3(C)C)cc2)C(C)(C)C)cc1 | Dmax | 26 to 50% |
| Cc1ncsc1-c1ccc(CNC(=O)[C@@H]2C[C@@H](O)CN2C(=O)[C@@H](NC(=O)COCCCOCCOc2cccc(-c3ccc(N4C(=S)N(c5ccc(C#N)c(C(F)(F)F)c5)C(=O)C4(C)C)cc3)c2)C(C)(C)C)cc1 | Dmax | > 71% |
| Cc1ncsc1-c1ccc(CNC(=O)[C@@H]2C[C@@H](O)CN2C(=O)[C@H](C(C)C)N2Cc3c(CCCOCCOc4ccc(N5C(=S)N(c6ccc(C#N)c(C(F)(F)F)c6)C(=O)C5(C)C)cc4)cccc3C2=O)cc1 | Dmax | > 71% |
| CC[C@H](NC(C)=O)C(=O)N1C[C@H](O)C[C@H]1C(=O)NCc1ccc(-c2scnc2C)cc1OCCOCCOCCOc1ccc(N2C(=S)N(c3ccc(C#N)c(C(F)(F)F)c3)C(=O)C2(C)C)cc1 | Dmax | 26 to 50% |
| Cc1ncsc1-c1ccc(CNC(=O)[C@@H]2C[C@@H](O)CN2C(=O)[C@@H](NC(=O)CC(=O)CCCOCCCCCOc2ccc(N3C(=S)N(c4ccc(C#N)c(C(F)(F)F)c4)C(=O)C3(C)C)cc2)C(C)(C)C)cc1 | Dmax | 51 to 70% |
| Cc1ncsc1-c1ccc(CNC(=O)[C@@H]2C[C@@H](O)CN2C(=O)[C@@H](NC(=O)CCOCCCOc2ccc(N3C(=S)N(c4ccc(C#N)c(C(F)(F)F)c4)C(=O)C3(C)C)cc2)C(C)(C)C)cc1 | Dmax | < 25% |
| Cc1ncsc1-c1ccc(CNC(=O)[C@@H]2C[C@@H](O)CN2C(=O)[C@@H](NC(=O)c2ccc(OCCCCOc3ccc(-c4ccc(N5C(=S)N(c6ccc(C#N)c(C(F)(F)F)c6)C(=O)C5(C)C)cc4)cc3)cc2)C(C)(C)C)cc1 | Dmax | < 25% |
| Cc1ncsc1-c1ccc(CNC(=O)[C@@H]2C[C@@H](O)CN2C(=O)[C@H](C(C)C)N2Cc3ccccc3C2=O)c(OCCOCCOc2ccc(N3C(=S)N(c4ccc(C#N)c(C(F)(F)F)c4)C(=O)C3(C)C)cc2)c1 | Dmax | 51 to 70% |

* * *

target: Androgen Receptor (Homo sapiens, UniProt P10275); construct: endogenous in cells; host or cells: VCaP cells; experiment: Androgen Receptor ELISA assay (PathScan AR ELISA) in VCaP cells: AR degradation, Dmax and DC50; format: cell-based; conditions: VCaP, VCaP cells; Table 36; read-out: VCaP Dmax (%)
Sequence (P10275 whole entry): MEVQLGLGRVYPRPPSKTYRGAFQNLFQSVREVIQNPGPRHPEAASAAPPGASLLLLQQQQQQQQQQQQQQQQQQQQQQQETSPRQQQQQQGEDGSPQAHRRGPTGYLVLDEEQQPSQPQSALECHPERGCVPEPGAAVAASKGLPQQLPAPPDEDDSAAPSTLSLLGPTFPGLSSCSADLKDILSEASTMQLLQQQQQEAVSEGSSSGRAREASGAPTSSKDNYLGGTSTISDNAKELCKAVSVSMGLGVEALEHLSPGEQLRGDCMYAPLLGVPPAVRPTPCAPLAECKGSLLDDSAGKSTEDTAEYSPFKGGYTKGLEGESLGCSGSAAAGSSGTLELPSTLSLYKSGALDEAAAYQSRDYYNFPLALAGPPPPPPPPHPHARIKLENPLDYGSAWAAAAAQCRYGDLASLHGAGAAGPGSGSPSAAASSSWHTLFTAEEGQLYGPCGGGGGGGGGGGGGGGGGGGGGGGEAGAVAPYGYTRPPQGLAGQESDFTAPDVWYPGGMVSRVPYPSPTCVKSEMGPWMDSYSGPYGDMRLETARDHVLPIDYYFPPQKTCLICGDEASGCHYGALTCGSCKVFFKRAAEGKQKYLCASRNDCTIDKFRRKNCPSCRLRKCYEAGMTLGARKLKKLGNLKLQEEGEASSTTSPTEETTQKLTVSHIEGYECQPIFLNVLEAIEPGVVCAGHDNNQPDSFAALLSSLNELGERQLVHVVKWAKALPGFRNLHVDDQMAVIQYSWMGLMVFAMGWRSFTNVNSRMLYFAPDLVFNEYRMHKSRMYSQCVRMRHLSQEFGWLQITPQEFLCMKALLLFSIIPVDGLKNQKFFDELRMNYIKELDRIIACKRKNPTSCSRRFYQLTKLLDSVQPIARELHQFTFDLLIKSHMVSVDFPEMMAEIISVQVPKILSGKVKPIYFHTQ
PROPERTY: Dmax

| GIVEN_SMILES | VAL |
| --- | --- |
| Cc1ncsc1-c1ccc([C@H](C)NC(=O)[C@@H]2C[C@@H](O)CN2C(=O)[C@@H](NC(=O)CCCCCCCCCc2ccc(C(=O)N[C@H]3C(C)(C)[C@H](Oc4ccc(C#N)c(Cl)c4)C3(C)C)cc2)C(C)(C)C)cc1 | 51 to 70% |
| Cc1ncsc1-c1ccc([C@H](C)NC(=O)[C@@H]2C[C@@H](O)CN2C(=O)[C@@H](NC(=O)CN2CCN(CCOc3ccc(C(=O)N[C@H]4C(C)(C)[C@H](Oc5ccc(C#N)c(Cl)c5)C4(C)C)cc3)CC2)C(C)(C)C)cc1 | > 71% |
| Cc1nc(O[C@H]2C(C)(C)[C@H](NC(=O)c3ccc(N4CCN(CCOCC(=O)N[C@H](C(=O)N5C[C@H](O)C[C@H]5C(=O)N[C@@H](C)c5ccc(-c6scnc6C)cc5)C(C)(C)C)CC4)nc3)C2(C)C)ccc1C#N | > 71% |
| Cc1ncsc1-c1ccc([C@H](C)NC(=O)[C@@H]2C[C@@H](O)CN2C(=O)[C@@H](NC(=O)OC(C)(C)C)[C@@H](C)OCCCN(C)CCc2ccc(C(=O)N[C@H]3C(C)(C)[C@H](Oc4ccc(C#N)c(Cl)c4)C3(C)C)cc2)cc1 | < 25% |

All values here come from patent US11427548B2.
